# testedTarget: KRAS G12D-cRAF (Homo sapiens, UniProt P01116, G12D)
# Construct: expressed in transfected cells
# Sequence (P01116 1-188 isoform P01116-2 G12D): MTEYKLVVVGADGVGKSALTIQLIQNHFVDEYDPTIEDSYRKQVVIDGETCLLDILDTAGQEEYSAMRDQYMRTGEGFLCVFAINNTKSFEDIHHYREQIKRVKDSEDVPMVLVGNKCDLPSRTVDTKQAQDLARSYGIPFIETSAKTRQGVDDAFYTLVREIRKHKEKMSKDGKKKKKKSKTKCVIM
# assayInfo: Cellular KRAS G12D-cRAF Binding Inhibition Assay (NanoBRET, AD293 stable cells)
# Type: cell-based
# conditionSet: 3 h incubation, read-out: NanoBRET KRAS G12D
# pIC50 per record follows
// pIC50 is dimensionless: -log10 of concentration (M)

Below, each entry is followed by its recorded pIC50 result.
CCN1CCN(c2cnc3c(c2)-c2c4c5cc(ccc5n2CCCOC3C)-c2csc(n2)CC(NC(=O)C23COC(C)(C2)C3)C(=O)N2CCCC(N2)C(=O)OCC(C)(C)C4)CC1 (centres unmarked): 8.08
CC1OCCCn2c(c3c4cc(ccc42)-c2csc(n2)CC(NC(=O)C2CC2C(F)F)C(=O)N2CCCC(N2)C(=O)OCC(C)(C)C3)-c2cc(N(C)CCN(C)C)cnc21 (centres unmarked): 7.41
CC1OCCCn2c(c3c4cc(ccc42)-c2csc(n2)CC(NC(=O)C2CC2C(F)F)C(=O)N2CCCC(N2)C(=O)OCC(C)(C)C3)-c2cc(N3CCN(C4CCN(C)CC4)CC3)cnc21 (centres unmarked): 8.49
CC1OCCCn2c(c3c4cc(ccc42)-c2csc(n2)CC(NC(=O)C2CC2C(F)F)C(=O)N2CCCC(N2)C(=O)OCC(C)(C)C3)-c2cc(N3CCCC(N(C)C)C3)cnc21 (centres unmarked): 8.74

Read the next record carefully.
Reported pIC50, compound COCCN1CCN(c2cnc3c(c2)-c2c4c5cc(ccc5n2CCCOC3C)-c2csc(n2)CC(NC(=O)C23CC(C)(C2)C3)C(=O)N2CCCC(N2)C(=O)OCC(C)(C)C4)CC1 (centres unmarked) : ____
8.07

* * *

Measured pIC50 of individual entries
# testedTarget: KRAS G12V-cRAF (Homo sapiens, UniProt P01116, G12V)
# Construct: expressed in transfected cells
# Sequence (P01116 1-188 isoform P01116-2 G12V): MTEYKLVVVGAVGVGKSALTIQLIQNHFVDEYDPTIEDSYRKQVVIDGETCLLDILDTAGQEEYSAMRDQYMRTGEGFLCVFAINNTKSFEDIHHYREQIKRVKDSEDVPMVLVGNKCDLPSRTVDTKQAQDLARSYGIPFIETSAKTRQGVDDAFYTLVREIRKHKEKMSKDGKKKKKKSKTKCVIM
# assayInfo: Cellular KRAS G12V-cRAF Binding Inhibition Assay (NanoBRET, AD293 stable cells)
# Format: cell-based
# conditionSet: 3 h incubation, read-out: NanoBRET KRAS G12V
As a rule, pIC50 stands for the negative log10 of the concentration, concentration in M.

CC1OCCCn2c(c3c4cc(ccc42)-c2csc(n2)CC(NC(=O)C2CC2C(F)F)C(=O)N2CCCC(N2)C(=O)OCC(C)(C)C3)-c2cc(N3CCC4(CC3)COC4)cnc21 (stereo not shown): 7.83

Reported pIC50 for KRAS G12V-cRAF (Homo sapiens, UniProt P01116, G12V), given CC1OCCCn2c(c3c4cc(ccc42)-c2csc(n2)CC(NC(=O)C2CC2C(F)F)C(=O)N2CCCC(N2)C(=O)OCC(C)(C)C3)-c2cc(N3CCN(C4CCN(C)CC4)CC3)cnc21 (stereo not shown) ?
7.93

// map CC1OCCCn2c(c3c4cc(ccc42)-c2csc(n2)CC(NC(=O)C2CC2C(F)F)C(=O)N2CCCC(N2)C(=O)OCC(C)(C)C3)-c2cc(N3CCN(C)C(C)C3)cnc21 (stereo not shown) to recorded pIC50 (system: KRAS G12V-cRAF (Homo sapiens, UniProt P01116, G12V))
7.83

What value of pIC50 on KRAS G12V-cRAF (Homo sapiens, UniProt P01116, G12V) does COCCN1CCN(c2cnc3c(c2)-c2c4c5cc(ccc5n2CCCOC3C)-c2csc(n2)CC(NC(=O)C2CC2C(F)F)C(=O)N2CCCC(N2)C(=O)OCC(C)(C)C4)CC1 (stereo not shown) have?
7.92

Item CC1OCCCn2c(c3c4cc(ccc42)-c2csc(n2)CC(NC(=O)C2CC2C(F)F)C(=O)N2CCCC(N2)C(=O)OCC(C)(C)C3)-c2cc(N3CCC(N(C)C)CC3)cnc21 (stereo not shown) with KRAS G12V-cRAF (Homo sapiens, UniProt P01116, G12V) - pIC50?
7.78

Lab request: please report pIC50 under test system KRAS G12V-cRAF (Homo sapiens, UniProt P01116, G12V) for CC1OCCCn2c(c3c4cc(ccc42)-c2csc(n2)CC(NC(=O)C2CC2C(F)F)C(=O)N2CCCC(N2)C(=O)OCC(C)(C)C3)-c2cc(N3CCC(N4CCN(C)CC4)CC3)cnc21 (stereo not shown)
7.83

Value wanted: pIC50 (KRAS G12V-cRAF (Homo sapiens, UniProt P01116, G12V)) of entry [2H]C([2H])([2H])N1CCN(c2cnc3c(c2)-c2c4c5cc(ccc5n2CCCOC3C)-c2csc(n2)CC(NC(=O)C2CC2C(F)F)C(=O)N2CCCC(N2)C(=O)OCC(C)(C)C4)CC1 (stereo not shown)
7.99

* * *

# testedTarget: KRAS G12V-cRAF (Homo sapiens, UniProt P01116, G12V)
# Construct: expressed in transfected cells
# assayInfo: Cellular KRAS G12V-cRAF Binding Inhibition Assay (NanoBRET, AD293 stable cells)
# Type: cell-based
# conditionSet: 3 h incubation, read-out: NanoBRET KRAS G12V
Label Y when IC50 is strictly below 20 nM; at or above that, label N.

A selection of reference data follows.
CC1OCCCn2c(c3c4cc(ccc42)-c2csc(n2)CC(NC(=O)C2CC2C(F)F)C(=O)N2CCCC(N2)C(=O)OCC(C)(C)C3)-c2cc(N3CCC(F)(F)CC3)cnc21 (stereo not shown): N
CC1OCCCn2c(c3c4cc(ccc42)-c2csc(n2)CC(NC(=O)C2CC2C(F)F)C(=O)N2CCCC(N2)C(=O)OCC(C)(C)C3)-c2cc(N3CC4CCC3CN4C)cnc21 (stereo not shown): Y
CC1OCCCn2c(c3c4cc(ccc42)-c2csc(n2)CC(NC(=O)C2C(C)C2C)C(=O)N2CCCC(N2)C(=O)OCC(C)(C)C3)-c2cc(CN3CCN(C)CC3)cnc21 (stereo not shown): N
CC1OCCCn2c(c3c4cc(ccc42)-c2csc(n2)CC(NC(=O)C2CC2C(F)F)C(=O)N2CCCC(N2)C(=O)OCC(C)(C)C3)-c2cc(N3CC(N4CCN(C)CC4)C3)cnc21 (stereo not shown): Y
CC1OCCCn2c(c3c4cc(ccc42)-c2csc(n2)CC(NC(=O)C2CC2C(F)F)C(=O)N2CCCC(N2)C(=O)OCC(C)(C)C3)-c2cc(N3CCC4(CCN(C)CC4)CC3)cnc21 (stereo not shown): N
CC1OCCCn2c(c3c4cc(ccc42)-c2csc(n2)CC(NC(=O)C2CC2C(F)F)C(=O)N2CCCC(N2)C(=O)OCC(C)(C)C3)-c2cc(OC3CCN(C)CC3)cnc21 (stereo not shown): N
CC1OCCCn2c(c3c4cc(ccc42)-c2csc(n2)CC(NC(=O)C2CC2C(F)F)C(=O)N2CCCC(N2)C(=O)OCC(C)(C)C3)-c2cc(N3CC(N4CCOCC4)C3)cnc21 (stereo not shown): Y
CCN1CCN(c2cnc3c(c2)-c2c4c5cc(ccc5n2CCCOC3C)-c2csc(n2)CC(NC(=O)C2C(C)C2C)C(=O)N2CCCC(N2)C(=O)OCC(C)(C)C4)CC1 (stereo not shown): Y
CC1CN(c2cnc3c(c2)-c2c4c5cc(ccc5n2CCCOC3C)-c2csc(n2)CC(NC(=O)C2CC2C(F)F)C(=O)N2CCCC(N2)C(=O)OCC(C)(C)C4)CC(C)O1 (stereo not shown) [Example 131]: Y
CCN1CCN(c2cnc3c(c2)-c2c4c5cc(ccc5n2CCCOC3C)-c2csc(n2)CC(NC(=O)C(C(C)C)N(C)C(=O)N2CCOCC2)C(=O)N2CCCC(N2)C(=O)OCC(C)(C)C4)CC1 (stereo not shown): Y

# TODO verify IC50 < 20 nM strictly for this compound: CC1OCCCn2c(c3c4cc(ccc42)-c2csc(n2)CC(NC(=O)C2CC2C(F)F)C(=O)N2CCCC(N2)C(=O)OCC(C)(C)C3)-c2cc(N3CCN4CCOCC4C3)cnc21 (stereo not shown)
Y

Problem: For the compound CC1OCCCn2c(c3c4cc(ccc42)-c2csc(n2)CC(NC(=O)C24CC(C)(C2)C4)C(=O)N2CCCC(N2)C(=O)OCC(C)(C)C3)-c2cc(N3CCN(C4CC4)CC3)cnc21 (stereo not shown) , is IC50 under 20 nM?
N

Determine if CCN1CCN(c2cnc3c(c2)-c2c4c5cc(ccc5n2CCCOC3C)-c2csc(n2)CC(NC(=O)C23CC(C)(C2)C3)C(=O)N2CCCC(N2)C(=O)OCC(C)(C)C4)CC1 (stereo not shown) shows IC50 strictly lower than 20 nM.
N

Does this compound meet the criterion IC50 < 20 nM? COCCN1CCN(c2cnc3c(c2)-c2c4c5cc(ccc5n2CCCOC3C)-c2csc(n2)CC(NC(=O)C23CC(C)(C2)C3)C(=O)N2CCCC(N2)C(=O)OCC(C)(C)C4)CC1 (stereo not shown)
N

Below 20 nM on IC50? Entry CCN1CCN(c2cnc3c(c2)-c2c4c5cc(ccc5n2CCCOC3C)-c2csc(n2)CC(NC(=O)C2CC2C(F)F)C(=O)N2CCCC(N2)C(=O)OCC(C)(C)C4)CC1 (stereo not shown)
Y

Please determine if CC1OCCCn2c(c3c4cc(ccc42)-c2csc(n2)CC(NC(=O)C2C(C)C2C)C(=O)N2CCCC(N2)C(=O)OCC(C)(C)C3)-c2cc(N3CC(C)N(C)C(C)C3)cnc21 (stereo not shown) [Example 165] is below 20 nM in terms of IC50.
Y
